Taken from ChEMBL document CHEMBL1140792.

Biological target: Tyrosine-protein phosphatase non-receptor type 1 (Homo sapiens, UniProt P18031)
Sequence (P18031 whole entry): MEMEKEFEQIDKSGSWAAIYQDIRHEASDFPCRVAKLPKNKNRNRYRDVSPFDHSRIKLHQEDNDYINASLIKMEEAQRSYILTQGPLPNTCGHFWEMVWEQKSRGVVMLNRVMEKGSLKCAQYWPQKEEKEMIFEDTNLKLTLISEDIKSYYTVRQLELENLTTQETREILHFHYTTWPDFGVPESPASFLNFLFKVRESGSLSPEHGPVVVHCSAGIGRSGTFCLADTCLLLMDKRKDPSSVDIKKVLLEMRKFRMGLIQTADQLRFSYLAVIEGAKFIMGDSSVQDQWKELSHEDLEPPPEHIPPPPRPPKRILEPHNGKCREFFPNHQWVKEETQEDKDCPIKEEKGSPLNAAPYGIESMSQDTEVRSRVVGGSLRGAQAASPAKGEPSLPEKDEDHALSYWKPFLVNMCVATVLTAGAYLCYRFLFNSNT
Measured pIC50 accompanies every entry in the list below.
Quick note: pIC50 means taking -log10 of the concentration in moles per liter.

Example entries and their recorded answers appear below.
O=C1CC(c2ccc(CC(NS(=O)(=O)c3cccc(C(F)(F)F)c3)C3=NC[C@H](Cc4ccccc4)N3)cc2)S(=O)(=O)N1 (some centres not stated) ... 5.89
Cc1cc(CC(NS(=O)(=O)c2cccc(F)c2)C2=NC[C@@H](CCOc3cccc(S(C)(=O)=O)c3)N2)ccc1C1CC(=O)NS1(=O)=O (some centres not stated) ... 7.64
Cc1cc(CC(NS(=O)(=O)c2cccc(F)c2)c2ncc(CCCCOc3cccc(O)c3C(=O)O)[nH]2)ccc1C1CC(=O)NS1(=O)=O (configuration not stated) ... 7.49
O=C1CC(c2ccc(CC(NS(=O)(=O)c3cccc(C(F)(F)F)c3)C3=NCCN3)cc2)S(=O)(=O)N1 (configuration not stated) ... 6.15
O=C1CC(c2ccc(CC(NS(=O)(=O)c3cccc(C(F)(F)F)c3)C3=NC[C@H](c4ccccc4)N3)cc2)S(=O)(=O)N1 (some centres not stated) ... 5.54

Ask: Suppose we examine the molecule O=C1CC(c2ccc(CC(NS(=O)(=O)c3cccc(C(F)(F)F)c3)C3=NC[C@@H](Cc4ccccc4)N3)cc2)S(=O)(=O)N1 (some centres not stated) ; what pIC50 value has been reported?
Reply: 6.82

Ask: Suppose we examine the molecule O=C1CC(c2ccc(CC(NS(=O)(=O)c3cccc(C(F)(F)F)c3)c3ncc[nH]3)cc2)S(=O)(=O)N1 (configuration not stated) ; what pIC50 value has been reported?
Reply: 6.62
